All values here come from patent US9247759B2.

- assayedSystem: hT2R64 (Homo sapiens (Human), UniProt P59538)
- Sequence (P59538 whole entry): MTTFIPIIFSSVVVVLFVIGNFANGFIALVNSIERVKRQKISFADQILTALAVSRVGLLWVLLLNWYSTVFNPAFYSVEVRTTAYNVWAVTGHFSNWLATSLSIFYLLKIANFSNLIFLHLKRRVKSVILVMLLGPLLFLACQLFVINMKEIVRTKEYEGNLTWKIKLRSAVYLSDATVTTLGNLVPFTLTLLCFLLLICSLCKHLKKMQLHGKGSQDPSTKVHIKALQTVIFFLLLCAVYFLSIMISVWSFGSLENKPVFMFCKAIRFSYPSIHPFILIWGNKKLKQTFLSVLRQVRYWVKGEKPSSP
- assayProtocol: hT2R panel inhibition, transient HEK293 G16g44, agonist Aristolochic Acid 1 μM
- Format: cell-based
- conditionContext: HEK293, compound at 25 μM; receptor activated to EC80 with the corresponding agonist; read-out: screening result against bitter receptor 64
observedProperty: inhibition at 25 µM

# example entries with known answers
molecule	assayedSystem	recordedResult
COc1ccc(CN(C2CCCc3ccccc32)S(=O)(=O)c2ccc(C(=O)O)cc2)cc1 (centres unmarked)	hT2R64 (Homo sapiens (Human), UniProt P59538)	60 to 80%
COc1ccccc1CN(Cc1ccc(C(=O)O)cc1)S(=O)(=O)c1ccc(O)cc1	hT2R64 (Homo sapiens (Human), UniProt P59538)	40 to 60%

Each molecule below has a recorded value; state its inhibition at 25 µM.
1. COc1ccc(C(NS(=O)(=O)c2ccc(C(=O)O)cc2)c2ccccc2)cc1 (centres unmarked)
2. COc1ccc(CN(Cc2ccccc2C)S(=O)(=O)c2ccc(C(=O)O)cc2)cc1
3. COc1ccc(CN(Cc2cccc(F)c2)S(=O)(=O)c2ccc(C(=O)O)cc2)cc1
4. O=C(O)c1ccc(CN(Cc2ccc(F)cc2)S(=O)(=O)c2ccccc2)cc1

Outgoing:
20 to 40%
20 to 40%
60 to 80%
> 80%

Parameter requested: inhibition at 25 µM. Apply to each item below.
1. COc1cccc(CN(Cc2ccc(C(=O)O)cc2)S(=O)(=O)c2ccccc2)c1
2. COc1ccc(CN(Cc2ccccc2OC)S(=O)(=O)c2ccc(C(=O)O)cc2)cc1
3. O=C(O)c1ccc(S(=O)(=O)N(Cc2ccccc2)Cc2ccco2)cc1
4. COc1ccc(CN(Cc2cccc(F)c2F)S(=O)(=O)c2ccc(C(=O)O)cc2)cc1
5. COc1cccc(CN(Cc2ccco2)S(=O)(=O)c2ccc(C(=O)O)cc2)c1

Outgoing:
1: > 80%; 2: 60 to 80%; 3: 60 to 80%; 4: 60 to 80%; 5: > 80%
